The entries below pair compounds with Ki values for Prostaglandin E2 receptor EP4 subtype (Homo sapiens), as found in several publications.
# output: bare number, implied unit nM

INPUT: I'm curious: which Ki was measured for CCCCCCc1ccc(N2C(=O)CC[C@@H]2CCCc2ccc(C(=O)O)s2)cc1 tested on Prostaglandin E2 receptor EP4 subtype (Homo sapiens)?
OUTPUT: 2610

INPUT: I'm curious: which Ki was measured for O=C(O)c1ccc(CCC[C@@H]2[C@@H](/C=C/C3CCCC3)[C@H](O)C[C@H]2Cl)s1 tested on Prostaglandin E2 receptor EP4 subtype (Homo sapiens)?
OUTPUT: 2740

INPUT: I'm curious: which Ki was measured for O=C(NCCc1ccc(C(=O)O)s1)c1cc(F)cc(-c2cccc(F)c2)c1 tested on Prostaglandin E2 receptor EP4 subtype (Homo sapiens)?
OUTPUT: 750

INPUT: I'm curious: which Ki was measured for O=C(NCc1ccc(C(=O)O)cc1)C1=C(Cc2ccccc2Cl)CCCC1 tested on Prostaglandin E2 receptor EP4 subtype (Homo sapiens)?
OUTPUT: 4

INPUT: I'm curious: which Ki was measured for Cc1cc(O)ccc1-c1cccc(C(O)/C=C/[C@H]2CCC(=O)N2CCCc2ccc(C(=O)O)cc2)c1 (single isomer, unassigned) tested on Prostaglandin E2 receptor EP4 subtype (Homo sapiens)?
OUTPUT: 25

INPUT: I'm curious: which Ki was measured for C=CCCCCCC[C@@H]1[C@@H](CCCc2ccc(C(=O)O)s2)[C@H](Cl)C[C@H]1O tested on Prostaglandin E2 receptor EP4 subtype (Homo sapiens)?
OUTPUT: 351

INPUT: I'm curious: which Ki was measured for COc1cc(C/C2=C(\C(=O)NCc3ccc(C(=O)O)cc3)CCCCCC2)cc(OC)c1 tested on Prostaglandin E2 receptor EP4 subtype (Homo sapiens)?
OUTPUT: 0.2

INPUT: I'm curious: which Ki was measured for C[C@H](NC(=O)c1c(Br)sc(Br)c1Cc1cccc(Cl)c1)c1ccc(C(=O)O)cc1 tested on Prostaglandin E2 receptor EP4 subtype (Homo sapiens)?
OUTPUT: 0.47

INPUT: I'm curious: which Ki was measured for Cc1ccc(-c2cccc(CO)c2)cc1C(=O)Nc1c(C)ccc(C(=O)O)c1C tested on Prostaglandin E2 receptor EP4 subtype (Homo sapiens)?
OUTPUT: 2.18

INPUT: I'm curious: which Ki was measured for O=C(O)c1ccc(CCCN2C(=O)CC[C@@H]2/C=C/C(O)c2cccc(Br)c2)cc1 (single isomer, unassigned) tested on Prostaglandin E2 receptor EP4 subtype (Homo sapiens)?
OUTPUT: 1210

* * *

The entries below pair molecules with Ki values for Prostaglandin E2 receptor EP4 subtype (Homo sapiens, UniProt P35408), as found in several publications.

INPUT: I'm curious: which Ki was measured for O=C(O)c1ccc(CNC(=O)c2cc(-c3ccccc3)ccc2Oc2ccc(F)cc2)cc1 tested on Prostaglandin E2 receptor EP4 subtype (Homo sapiens, UniProt P35408)?
OUTPUT: < 0.1 µM

INPUT: I'm curious: which Ki was measured for CCCCC[C@H](O)c1ccc(C2=C(Cl)CC[C@@H]2CCCc2ccc(C(=O)O)s2)cc1 tested on Prostaglandin E2 receptor EP4 subtype (Homo sapiens, UniProt P35408)?
OUTPUT: 3.68 µM

INPUT: I'm curious: which Ki was measured for C=CCCc1cccc(/C=C/[C@@H]2[C@@H](CCCc3ccc(C(=O)O)s3)[C@H](Cl)C[C@H]2O)c1 tested on Prostaglandin E2 receptor EP4 subtype (Homo sapiens, UniProt P35408)?
OUTPUT: 0.288 µM

INPUT: I'm curious: which Ki was measured for CCCCCC=C[C@@H]1[C@@H](CCCc2ccc(C(=O)O)s2)[C@H](Cl)C[C@H]1O tested on Prostaglandin E2 receptor EP4 subtype (Homo sapiens, UniProt P35408)?
OUTPUT: 0.186 µM

INPUT: I'm curious: which Ki was measured for Cc1c(-c2cccc(C(O)/C=C/[C@H]3CCC(=O)N3CCCc3ccc(C(=O)O)cc3)c2)ccc(Cl)c1Cl (single isomer, unassigned) tested on Prostaglandin E2 receptor EP4 subtype (Homo sapiens, UniProt P35408)?
OUTPUT: 2.34 µM

INPUT: I'm curious: which Ki was measured for Cc1sc(C)c(C(=O)NC2(c3ccc(-c4nn[nH]n4)cc3)CC2)c1Cc1cccc(C(F)(F)F)c1 tested on Prostaglandin E2 receptor EP4 subtype (Homo sapiens, UniProt P35408)?
OUTPUT: 0.0007 µM

INPUT: I'm curious: which Ki was measured for CC(c1ccccc1)C(O)CCN1CCC(=O)N1CCc1ccc(C(=O)O)cc1 (stereo in doubt) tested on Prostaglandin E2 receptor EP4 subtype (Homo sapiens, UniProt P35408)?
OUTPUT: 0.095 µM
